- Tested on: Peronospora parasitica
- MEASUREMENT DESCRIPTION: In vivo preventive test on Peronospora parasitica (Crucifer downy mildew)
- APPLIED CONDITIONS: Hyaloperonospora parasitica, in Brassica oleracea, 120 h, 31 ppm of active ingredient, cabbage, evaluated 5 days after inoculation, read-out: efficacy
QUANTITY: pest or weed control at 31 ppm

Use these answered entries as a reference point.
- MOLECULE: "COC(=O)CC[C@H](NC(=O)c1sc(Cl)c(Cl)c1Cl)C(=O)OC [I.139]"
  TGT: "Peronospora parasitica"
  EXPERIMENTAL RESULT: "90 to 100%"
- MOLECULE: "CCNC(=O)[C@H](C)NC(=O)c1sc(Cl)c(Cl)c1Cl [I.120]"
  TGT: "Peronospora parasitica"
  EXPERIMENTAL RESULT: "90 to 100%"
- MOLECULE: "CCOC(=O)C(COC)NC(=O)c1sc(Cl)c(Cl)c1Cl (centres unmarked) [I.059]"
  TGT: "Peronospora parasitica"
  EXPERIMENTAL RESULT: "80 to 89%"
- MOLECULE: "COC(=O)C(Cc1c[nH]cn1)NC(=O)c1sc(Cl)c(Cl)c1Cl (centres unmarked) [I.012]"
  TGT: "Peronospora parasitica"
  EXPERIMENTAL RESULT: "70 to 79%"

Next up:
In: Using the record for O=C(O)CNC(=S)c1sc(Cl)c(Cl)c1Cl [I.022] , report its pest or weed control at 31 ppm.
Out: 90 to 100%

* * *

chromatographic logP for assorted compounds
- MEASUREMENT DESCRIPTION: LogP by HPLC on reversed phase columns (EEC directive 79/831 Annex V.A8)
- Format: physicochemical
- APPLIED CONDITIONS: reversed phase HPLC columns, method [a]: LC-UV, in an acidic range, with 0.1% formic acid in water and acetonitrile as eluent (linear gradient from 10% to 95% acetonitrile)
No unit in the answer, only the number.

Use these answered entries as a reference point.
- COMPOUND: "CCOC(=O)C(NC(=O)c1sc(Cl)c(Cl)c1Cl)c1ccccc1 (stereo not drawn)"
  chromatographic logP: 4.89
- COMPOUND: "COC(=O)[C@H](C)NC(=S)c1sc(Cl)c(Cl)c1Cl"
  chromatographic logP: 4.62
- COMPOUND: "CCOC(=O)C(CC(F)(F)F)NC(=O)c1sc(Cl)c(Cl)c1Cl (stereo not drawn)"
  chromatographic logP: 4.27
- COMPOUND: "CON(C(=O)c1sc(Cl)c(Cl)c1Cl)C(C)C(=O)O (stereo not drawn)"
  chromatographic logP: 2.83
- COMPOUND: "COC(=O)C(C)N(OC)C(=O)c1sc(Cl)c(Cl)c1Cl (stereo not drawn)"
  chromatographic logP: 3.72

In: Using the record for N#CCNC(=O)c1sc(Cl)c(Cl)c1Cl , report its chromatographic logP.
Out: 2.64

In: Using the record for CCOC(=O)C(C#N)NC(=O)c1sc(Cl)c(Cl)c1Cl (stereo not drawn) , report its chromatographic logP.
Out: 3.31

In: Using the record for COC(=O)[C@H](CC(N)=O)NC(=O)c1sc(Cl)c(Cl)c1Cl , report its chromatographic logP.
Out: 2.16

In: Using the record for CCOC(=O)C(CO)NC(=O)c1sc(Cl)c(Cl)c1Cl (stereo not drawn) , report its chromatographic logP.
Out: 2.75

In: Using the record for CCOC(=O)C(C)N(C(=O)c1sc(Cl)c(Cl)c1Cl)C1CC1 (stereo not drawn) , report its chromatographic logP.
Out: 4.23

In: Using the record for COC(=O)CNC(=S)c1sc(Cl)c(Cl)c1Cl , report its chromatographic logP.
Out: 4.05

In: Using the record for C[C@H](NC(=O)c1sc(Cl)c(Cl)c1Cl)C(N)=O , report its chromatographic logP.
Out: 2.16
